# systemName: Tyrosine-protein kinase Lyn (Homo sapiens) (UniProt P07948)
# Sequence (P07948 2-512 limits assumed): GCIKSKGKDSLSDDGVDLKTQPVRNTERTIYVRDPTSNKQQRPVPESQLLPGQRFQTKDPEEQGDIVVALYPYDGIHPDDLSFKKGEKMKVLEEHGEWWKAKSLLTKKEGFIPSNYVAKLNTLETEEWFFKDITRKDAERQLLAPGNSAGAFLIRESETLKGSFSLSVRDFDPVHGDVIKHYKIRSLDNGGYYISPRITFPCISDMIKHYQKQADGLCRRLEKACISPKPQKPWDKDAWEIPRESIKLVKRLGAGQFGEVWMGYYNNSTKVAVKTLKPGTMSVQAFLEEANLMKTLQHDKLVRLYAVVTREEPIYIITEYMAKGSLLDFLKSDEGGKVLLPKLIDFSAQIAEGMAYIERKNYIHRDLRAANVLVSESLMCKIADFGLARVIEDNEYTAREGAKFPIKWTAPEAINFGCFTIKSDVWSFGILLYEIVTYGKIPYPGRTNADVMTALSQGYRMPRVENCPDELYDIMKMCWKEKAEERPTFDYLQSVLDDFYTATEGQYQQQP
# experimentalSetup: at 10 µM
readoutKind: residual activity (%)
The figure you give is taken to be in %; do not add the unit.

- compoundString: "Cc1ccc(S(=O)(=O)/C=C/C#N)cc1"
  systemName: "Tyrosine-protein kinase Lyn (Homo sapiens) (UniProt P07948)"
  readoutKind: "residual activity"
  unitLabel: "%"
  measuredResult: 94
- compoundString: "N#Cc1cnc2cnc(NCc3cccnc3)cc2c1Nc1ccc(F)c(Cl)c1"
  systemName: "Tyrosine-protein kinase Lyn (Homo sapiens) (UniProt P07948)"
  readoutKind: "residual activity"
  unitLabel: "%"
  measuredResult: 1
- compoundString: "Cn1cc(/C=C2\\C(=O)Nc3ccc(S(N)(=O)=O)cc32)c2ccccc21"
  systemName: "Tyrosine-protein kinase Lyn (Homo sapiens) (UniProt P07948)"
  readoutKind: "residual activity"
  unitLabel: "%"
  measuredResult: 1

Notebook: CC(C)n1cnc2/c(=N/c3cccc(Cl)c3)nc(NCCO)[nH]c21 , residual activity read as 2

The value of residual activity measured for the compound CNc1cc2c(Nc3cccc(Br)c3)ncnc2cn1 turned out to be 5

residual activity recorded for this compound, COc1cc2ncnc(N3CCN(C(=O)Nc4ccc(Oc5ccccc5)cc4)CC3)c2cc1OC , is 100

Value of residual activity reported for the compound c1ccc(-c2n[nH]c3c2oc2ccccc23)cc1 is 30

Measured residual activity, COc1ccc(OC)c2c(=S)c3ccccc3[nH]c12 : 84

Value of measured residual activity for the entry Cc1cccc(-c2[nH]c(C(C)(C)C)nc2-c2ccc3c(c2)OCO3)n1 : 76

Quick note, residual activity for COc1ccc(CNc2nc(N(CCO)CCO)nc3c2ncn3C(C)C)cc1 landed at 78

residual activity for O=C(O)c1ccc2c3c1cccc3c(=O)n1c3ccccc3nc21 is 87

Reported residual activity for CC(C)n1cnc2c(NCc3ccccc3)nc(NCCCO)nc21 was 38

Entry Cn1cnc2cc3c(Nc4cccc(Br)c4)ncnc3cc21 — recorded residual activity = 2

// residual activity value for c1ccc(-c2n[nH]cc2-c2ccnc3ccccc23)nc1 : 24

So, CC(=O)O/N=C1\C(=C2\C(=O)Nc3cc(Br)ccc32)Nc2ccccc21 ? Its residual activity was 4

Lab book: residual activity of O=c1cc(-c2cccc3c2Sc2ccccc2S3)oc(N2CCOCC2)c1 noted as 86

Short answer for c1ccc2c(-c3ccncc3)c[nH]c2c1 : residual activity was 91

Short answer for O=C1NC(=O)/C(=C\c2ccc3nccnc3c2)S1 : residual activity was 89

CCN(CC)CCCCN1c2ccccc2Oc2ccc(Cl)cc21 yielded residual activity of 67

Noted for CC#CC(=O)Nc1cc2c(Nc3ccc(F)c(Cl)c3)ncnc2cn1 : its residual activity reads 51

* * *

The entries below come with measured residual activity values attached.
# systemName: Tyrosine-protein kinase ITK/TSK (Homo sapiens) (UniProt Q08881)
# Sequence (Q08881 whole entry): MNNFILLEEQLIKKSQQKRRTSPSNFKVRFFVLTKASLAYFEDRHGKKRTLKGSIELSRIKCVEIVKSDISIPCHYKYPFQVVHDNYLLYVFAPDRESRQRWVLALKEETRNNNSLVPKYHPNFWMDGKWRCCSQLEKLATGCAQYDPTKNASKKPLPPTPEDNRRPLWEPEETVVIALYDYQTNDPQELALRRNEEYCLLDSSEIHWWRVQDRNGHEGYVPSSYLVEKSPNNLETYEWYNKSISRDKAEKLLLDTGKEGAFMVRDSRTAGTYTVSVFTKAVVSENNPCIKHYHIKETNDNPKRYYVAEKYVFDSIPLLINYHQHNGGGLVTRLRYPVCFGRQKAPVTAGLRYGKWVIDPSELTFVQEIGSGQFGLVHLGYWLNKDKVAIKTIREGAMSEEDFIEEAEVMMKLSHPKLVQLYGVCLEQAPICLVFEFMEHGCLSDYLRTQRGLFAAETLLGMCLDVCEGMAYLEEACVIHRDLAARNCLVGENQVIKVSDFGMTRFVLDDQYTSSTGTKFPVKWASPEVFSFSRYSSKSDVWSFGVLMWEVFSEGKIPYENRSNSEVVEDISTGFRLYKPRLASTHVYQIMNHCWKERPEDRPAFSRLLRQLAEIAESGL
# experimentalSetup: at 1 µM
Please give a number only; it is taken to be in %.

Worked cases, residual activity given:
- compoundString: "N#CCCc1ccc2c(c1)-c1[nH]c3ccc([N+](=O)[O-])cc3c1CC(=O)N2"
  readoutKind: "residual activity"
  measuredResult: 81
- compoundString: "O=Nc1c(-c2c(O)[nH]c3ccccc23)[nH]c2ccccc12"
  readoutKind: "residual activity"
  measuredResult: 19
- compoundString: "c1ccc(-c2n[nH]c3c2oc2ccccc23)cc1"
  readoutKind: "residual activity"
  measuredResult: 98
- compoundString: "COc1ccc(CNc2nc(N(CCO)CCO)nc3c2ncn3C(C)C)cc1"
  readoutKind: "residual activity"
  measuredResult: 94
- compoundString: "CC#CC(=O)Nc1cc2c(Nc3ccc(F)c(Cl)c3)ncnc2cn1"
  readoutKind: "residual activity"
  measuredResult: 100

get_value(item= O=C(Nc1cccc(Nc2cc(Nc3cccc(C(F)(F)F)c3)ncn2)c1)C1CC1 , readout=residual activity) returns 105

Oc1ccc(-c2nc(-c3ccc(F)cc3)c(-c3ccncc3)[nH]2)cc1 has a reported residual activity of 108

Per the records, this molecule ( O=c1cc(-c2cccc3c2Sc2ccccc2S3)oc(N2CCOCC2)c1 ) has residual activity equal to 105

Reported residual activity for O=C1Nc2cc(Br)ccc2/C1=C1/Nc2ccccc2/C1=N\O was 22

// residual activity lookup, molecule = Cc1ccc(S(=O)(=O)/C=C/C#N)cc1 , result: 103

Item: N#Cc1cnc2cnc(NCc3cccnc3)cc2c1Nc1ccc(F)c(Cl)c1 | residual activity: 72

The measured residual activity associated with C[C@@H](N)[C@H]1CC[C@H](C(=O)Nc2ccncc2)CC1 reads 106

* * *

# systemName: Tyrosine-protein kinase Lyn (Homo sapiens)
# experimentalSetup: at 1 µM
Rule: residual activity of 60% or more gives condition met; anything lower gives condition not met.

- compoundString: "Cn1cnc2cc3c(Nc4cccc(Br)c4)ncnc3cc21"
  systemName: "Tyrosine-protein kinase Lyn (Homo sapiens)"
  classification: "condition not met"

// query Dear colleague, could you confirm whether Cc1cc2ncc(-c3ccccc3)nc2cc1C has residual activity at or above 60%?
// result condition met

// query Exam item: decide whether the reported residual activity for Cc1ccc(S(=O)(=O)/C=C/C#N)cc1 is at least 60%.
// result condition met

// query Check if residual activity >= 60% (inclusive). Item: CC#CC(=O)Nc1cc2c(Nc3ccc(F)c(Cl)c3)ncnc2cn1
// result condition met

// query Is residual activity at least 60%? Consider Cc1cccc(-c2[nH]c(C(C)(C)C)nc2-c2ccc3c(c2)OCO3)n1
// result condition met

// query Given the entry CCC(=O)Nc1ccc2ncnc(Nc3cccc(Br)c3)c2c1 , answer whether its residual activity meets or surpasses 60%.
// result condition not met

// query Answer whether residual activity of O=C1NC(=O)/C(=C/c2ccc3c(c2)OC(F)(F)O3)S1 is greater than or equal to 60%.
// result condition met

// query Has COc1cc2ncc(-c3ccccc3)nc2cc1OC a recorded residual activity greater than or equal to 60%?
// result condition met

// query For this compound, is measured residual activity 60% or higher? Nc1nc(Nc2ccc(S(N)(=O)=O)cc2)nn1C(=S)Nc1c(F)cccc1F
// result condition not met

// query Is it the case that O=C1Nc2cc(Br)ccc2/C1=C1/Nc2ccccc2/C1=N\O has residual activity reaching or exceeding 60%?
// result condition not met

// query Confirm if residual activity reported for the compound NC(=O)c1ccc2[nH]c(-c3ccc(Oc4ccc(Cl)cc4)cc3)nc2c1 is 60% or above.
// result condition met

// query Entry CC(=O)O/N=C1\C(=C2\C(=O)Nc3cc(Br)ccc32)Nc2ccccc21 : is its residual activity no less than 60%?
// result condition not met

// query Please tell me: is the compound N#C/C(=C(\N)Sc1ccc(N)cc1)c1ccccc1C(F)(F)F at or over 60% in terms of residual activity?
// result condition met

// query Does the compound CC(C)n1cnc2/c(=N/c3cccc(Cl)c3)nc(NCCO)[nH]c21 have recorded residual activity that is 60% or more?
// result condition not met

// query Does the reported residual activity for O=c1c2ccccc2[nH]c(=S)n1CCN1CCC(=C(c2ccc(F)cc2)c2ccc(F)cc2)CC1 fall at or above the 60% mark?
// result condition met

// query Tell me whether residual activity is at least 60% here: CCOc1cc2ncnc(Nc3cccc(Br)c3)c2cc1OCC
// result condition not met

// query Hi, just wondering whether COc1ccc(S(=O)(=O)N(CCO)c2ccccc2CN(C)C/C=C/c2ccc(Cl)cc2)cc1 shows residual activity of 60% or higher.
// result condition met

// query Hi, just wondering whether Cn1cc(/C=C2\C(=O)Nc3ccc(S(N)(=O)=O)cc32)c2ccccc21 shows residual activity of 60% or higher.
// result condition not met

// query Given the entry COc1cc2ncnc(N3CCN(C(=O)Nc4ccc(Oc5ccccc5)cc4)CC3)c2cc1OC , answer whether its residual activity meets or surpasses 60%.
// result condition met

// query Has CC(=O)c1ccc(N2CCOCC2)cc1O a recorded residual activity greater than or equal to 60%?
// result condition met

// query Quick check: does Cn1nc2c3c(cccc31)C(=O)c1ccccc1-2 have residual activity greater than or equal to 60%?
// result condition met

// query Given Cc1nc2cc3nc(-c4cccs4)cnc3cc2n1C , state whether its residual activity is at least 60%.
// result condition met

// query Is residual activity for COc1ccc(CNc2nc(N(CCO)CCO)nc3c2ncn3C(C)C)cc1 at or above 60%?
// result condition met

* * *

Entries and their measured residual activity follow.
# systemName: Dual specificity protein kinase CLK2 (Homo sapiens) (UniProt P49760)
# Sequence (P49760 whole entry, looked up): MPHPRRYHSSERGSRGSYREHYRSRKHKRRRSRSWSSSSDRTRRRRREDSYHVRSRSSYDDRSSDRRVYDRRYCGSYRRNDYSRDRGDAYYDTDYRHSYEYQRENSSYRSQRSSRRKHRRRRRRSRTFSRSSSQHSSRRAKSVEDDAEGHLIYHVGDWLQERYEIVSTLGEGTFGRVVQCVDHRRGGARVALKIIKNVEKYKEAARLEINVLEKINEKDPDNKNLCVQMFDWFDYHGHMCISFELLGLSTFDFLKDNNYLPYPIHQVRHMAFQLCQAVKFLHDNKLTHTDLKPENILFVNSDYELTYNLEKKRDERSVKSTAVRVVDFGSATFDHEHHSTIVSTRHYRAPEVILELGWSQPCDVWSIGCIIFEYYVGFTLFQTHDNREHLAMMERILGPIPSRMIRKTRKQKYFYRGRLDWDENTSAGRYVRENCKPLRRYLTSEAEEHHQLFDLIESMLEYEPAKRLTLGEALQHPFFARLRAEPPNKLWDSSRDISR
# experimentalSetup: at 1 µM
Dear colleague, please return just the value in %, with no unit written.

Recorded residual activity, per entry:
- compound: "Cn1cc(/C=C2\\C(=O)Nc3ccc(S(N)(=O)=O)cc32)c2ccccc21"
  unitLabel: "%"
  residual activity: 35
- compound: "Nc1n[nH]c2nnc(-c3c(-c4ccccc4)nn4ccccc34)cc12"
  unitLabel: "%"
  residual activity: 98
- compound: "O=Nc1c(-c2c(O)[nH]c3ccccc23)[nH]c2ccccc12"
  unitLabel: "%"
  residual activity: 14
- compound: "CC#CC(=O)Nc1cc2c(Nc3ccc(F)c(Cl)c3)ncnc2cn1"
  unitLabel: "%"
  residual activity: 103
- compound: "Ic1cccc(CSc2nnc(-c3ccncc3)o2)c1"
  unitLabel: "%"
  residual activity: 12
- compound: "O=C1Nc2ccccc2/C1=C1/Nc2ccccc2/C1=N\\OCCC(O)CO (stereo unspecified)"
  unitLabel: "%"
  residual activity: 2
- compound: "CNc1cc2c(Nc3cccc(Br)c3)ncnc2cn1"
  unitLabel: "%"
  residual activity: 113
- compound: "Cc1ccc(NC2=CC(=O)c3sc(C)nc3C2=O)cc1"
  unitLabel: "%"
  residual activity: 111
- compound: "COc1ccc(C(=O)Nc2sc3c(c2C(N)=O)CCCC3)cc1OC"
  unitLabel: "%"
  residual activity: 90
- compound: "COc1cc2ncnc(N3CCN(C(=O)Nc4ccc(Oc5ccccc5)cc4)CC3)c2cc1OC"
  unitLabel: "%"
  residual activity: 84

residual activity reading for CC(C)n1cnc2/c(=N/c3cccc(Cl)c3)nc(NCCO)[nH]c21 : 19

src = ChEMBL document CHEMBL2218924
